study.system: T1, recombinant human CTLA-4 protein (human, UniProt P16410 36-161)
T1 construct: Recombinant protein used as analyte in SPR/Octet; also called hCTLA-4; CD152
T1 sequence (looked up): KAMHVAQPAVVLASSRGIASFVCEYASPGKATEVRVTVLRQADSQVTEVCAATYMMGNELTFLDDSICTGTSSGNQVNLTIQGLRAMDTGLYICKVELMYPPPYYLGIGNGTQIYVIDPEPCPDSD
assay.overview: SPR (Pioneer FE) or Octet (Red96e), 25 C; IgG captured by anti-human Fc or AHC sensor, hCTLA-4 as analyte
Entries and their Kd
observed.property: Kd (nM)

* IgG antibody 78-24D22V HC / 78-24 LC (antibody, V domains shown) VH: EVQLVESGGGLVQPGGSLRLSCAASGFTFPSYSMHWVRQAPGKGLEWVSGISGSGWSTSYADSVKGRFTISRDNSKNTLYLQMNSLRAEDTAVYYCARDLMAFNLVRAGGFDVWGQGTLVTVSS VL: DIQMTQSPSSLSASVGDRVTITCQASQDISNYLNWYQQKPGKAPKLLIYDASNLETGVPSRFSGSGSGTDFTFTISSLQPEDIATYYCQQGDAWPWTFGQGTKVEIKR | 1.4
* IgG antibody 78-8D4 HC / 78-8 LC (antibody, V domains shown) VH: EVQLVESGGGLVQPGGSLRLSCAASGFTFSSYVMHWVRQAPGKGLEWVSAITWSGGGTYYADSVKGRFTISRDNSKNTLYLQMNSLRAEDTAVYYCARGRLFGLVRYGEAFDVWGQGTLVTVSS VL: DIQMTQSPSSLSASVGDRVTITCQASKDISNYLNWYQQKPGKAPKLLIYDASNLETGVPSRFSGSGSGTDFTFTISSLQPEDIATYYCQQFNSFPLTFGQGTKVEIKR | 0.39
* IgG antibody 78-8D2 HC / 78-8 LC (antibody, V domains shown) VH: EVQLVESGGGLVQPGGSLRLSCAASGFTFSSYVMHWVRQAPGKGLEWVSAITWSGRGTYYADSVKGRFTISRDNSKNTLYLQMNSLRAEDTAVYYCARGRLFGLALYGEAFDVWGQGTLVTVSS VL: DIQMTQSPSSLSASVGDRVTITCQASKDISNYLNWYQQKPGKAPKLLIYDASNLETGVPSRFSGSGSGTDFTFTISSLQPEDIATYYCQQFNSFPLTFGQGTKVEIKR | 0.41
* IgG antibody 78-24D1V HC / 78-24 LC (antibody, V domains shown) VH: EVQLVESGGGLVQPGGSLRLSCAASGFTFTSYSMHWVRQAPGKGLEWVSGISGSGRSTSYADSVKGRFTISRDNSKNTLYLQMNSLRAEDTAVYYCARDLMAFNLVRAGGFDVWGQGTLVTVSS VL: DIQMTQSPSSLSASVGDRVTITCQASQDISNYLNWYQQKPGKAPKLLIYDASNLETGVPSRFSGSGSGTDFTFTISSLQPEDIATYYCQQGDAWPWTFGQGTKVEIKR | 1.6
